This document collects pIC50 values reported for Beta-lactamase (Enterobacter cloacae).
pIC50: −log10 of the molar value.
Quantity Kind: pIC50

{"Structure As Smiles": "COC(=O)/C=C1/C(=O)N2[C@@H](C(=O)[O-])C(C)(C)S(=O)(=O)[C@H]12.[Na+]", "Quantity Kind": "pIC50", "Comparison Symbol": "=", "Number": 6.21}
{"Structure As Smiles": "CC(=O)/C=C1/C(=O)N2[C@@H]1SC(C)(C)[C@@H]2C(=O)O", "Quantity Kind": "pIC50", "Comparison Symbol": "=", "Number": 5.27}
{"Structure As Smiles": "CC1(C)[C@H](C(=O)[O-])N2C(=O)/C(=C/C(=O)[O-])[C@H]2S1(=O)=O.[Na+].[Na+]", "Quantity Kind": "pIC50", "Comparison Symbol": "=", "Number": 7.04}
{"Structure As Smiles": "CC(C)(C)OC(=O)/C=C1/C(=O)N2[C@@H](C(=O)[O-])C(C)(C)S(=O)(=O)[C@H]12.[Na+]", "Quantity Kind": "pIC50", "Comparison Symbol": "=", "Number": 4.87}
{"Structure As Smiles": "CC1(C)S[C@@H]2/C(=C\\C(=O)O)C(=O)N2[C@H]1C(=O)O", "Quantity Kind": "pIC50", "Comparison Symbol": "<", "Number": 4.70}
{"Structure As Smiles": "C=C=C1C(=O)N2C(C(=O)O)=C(COC(C)=O)CS(=O)(=O)[C@H]12", "Quantity Kind": "pIC50", "Comparison Symbol": "=", "Number": 6.59}
{"Structure As Smiles": "C=C1C(=O)N2C(C(=O)O)=C(COC(C)=O)CS(=O)(=O)[C@H]12", "Quantity Kind": "pIC50", "Comparison Symbol": "=", "Number": 7.60}
{"Structure As Smiles": "CC(=O)OCC1=C(C(=O)O)N2C(=O)/C(=C/C(=O)O)[C@H]2SC1", "Quantity Kind": "pIC50", "Comparison Symbol": "<", "Number": 4.70}
{"Structure As Smiles": "CC(C)(C)OC(=O)/C=C1/C(=O)N2[C@@H]1SC(C)(C)[C@@H]2C(=O)O", "Quantity Kind": "pIC50", "Comparison Symbol": "<", "Number": 4.70}
{"Structure As Smiles": "COC(=O)/C=C1/C(=O)N2[C@@H]1SC(C)(C)[C@@H]2C(=O)O", "Quantity Kind": "pIC50", "Comparison Symbol": "<", "Number": 4.70}
{"Structure As Smiles": "COC(=O)/C=C1/C(=O)N2C(C(=O)O)=C(COC(C)=O)CS[C@H]12", "Quantity Kind": "pIC50", "Comparison Symbol": "<", "Number": 4.70}
{"Structure As Smiles": "COC(=O)/C=C1/C(=O)N2C(C(=O)[O-])=C(COC(C)=O)CS(=O)(=O)[C@H]12.[Na+]", "Quantity Kind": "pIC50", "Comparison Symbol": "<", "Number": 4.70}
{"Structure As Smiles": "CC(=O)OCC1=C(C(=O)[O-])N2C(=O)/C(=C/C(=O)[O-])[C@H]2S(=O)(=O)C1.[Na+].[Na+]", "Quantity Kind": "pIC50", "Comparison Symbol": "<", "Number": 4.70}

====

This document collects pIC50 values reported for Beta-lactamase (Enterobacter cloacae, UniProt P05364).
pIC50: −log10 of the molar value.

{"Structure As Smiles": "COC(=O)/C=C1/C(=O)N2C(C(=O)[O-])=C(COC(C)=O)CS(=O)(=O)[C@H]12.[Na+]", "Comparison Symbol": "<", "pIC50": 4.70}
{"Structure As Smiles": "C=C=C1C(=O)N2C(C(=O)O)=C(COC(C)=O)CS(=O)(=O)[C@H]12", "Comparison Symbol": "=", "pIC50": 6.89}
{"Structure As Smiles": "CC(=O)OCC1=C(C(=O)[O-])N2C(=O)/C(=C/C(=O)[O-])[C@H]2S(=O)(=O)C1.[Na+].[Na+]", "Comparison Symbol": "<", "pIC50": 4.70}
{"Structure As Smiles": "COC(=O)/C=C1/C(=O)N2[C@@H]1SC(C)(C)[C@@H]2C(=O)O", "Comparison Symbol": "<", "pIC50": 4.70}
{"Structure As Smiles": "C=C1C(=O)N2C(C(=O)O)=C(COC(C)=O)CS(=O)(=O)[C@H]12", "Comparison Symbol": "=", "pIC50": 7.60}
{"Structure As Smiles": "COC(=O)/C=C1/C(=O)N2[C@@H](C(=O)[O-])C(C)(C)S(=O)(=O)[C@H]12.[Na+]", "Comparison Symbol": "=", "pIC50": 6.81}
{"Structure As Smiles": "CC(=O)OCC1=C(C(=O)O)N2C(=O)/C(=C/C(=O)O)[C@H]2SC1", "Comparison Symbol": "<", "pIC50": 4.70}
{"Structure As Smiles": "CC1(C)[C@H](C(=O)[O-])N2C(=O)/C(=C/C(=O)[O-])[C@H]2S1(=O)=O.[Na+].[Na+]", "Comparison Symbol": "=", "pIC50": 7.35}

====

# Tested on: Staphylococcus aureus
# Assay Comment: […] antibacterial activity (synergistic study) against Staphylococcus aureus ATCC 29213
# Format: functional
The reader will find reported MIC values listed item by item below.
Quantity Kind: MIC (µg/mL)

{"Compound": "CCN1CCN(C(=O)N[C@@H](C(=O)NC2C(=O)N3C2SC(C)(C)C3C(=O)O)c2ccccc2)C(=O)C1=O (single isomer, unassigned; form 2)", "Comparison Symbol": "=", "Number": 4}
{"Compound": "CCN1CCN(C(=O)NC(C(=O)N[C@H]2C(=O)N3[C@H]2SC(C)(C)[C@H]3C(=O)O)c2ccccc2)C(=O)C1=O.COC(=O)/C=C1/C(=O)N2[C@@H](C(=O)[O-])C(C)(C)S(=O)(=O)[C@H]12.[Na+] (stereo not given in full)", "Comparison Symbol": "=", "Number": 1}
{"Compound": "CC(C)(C)OC(=O)/C=C1/C(=O)N2[C@@H](C(=O)[O-])C(C)(C)S(=O)(=O)[C@H]12.[Na+]", "Comparison Symbol": ">", "Number": 128}
{"Compound": "C[C@]1(Cn2ccnn2)[C@H](C(=O)O)N2C(=O)C[C@H]2S1(=O)=O (single isomer, unassigned)", "Comparison Symbol": "=", "Number": 64}
{"Compound": "CC1(C)[C@H](C(=O)[O-])N2C(=O)/C(=C/C(=O)[O-])[C@H]2S1(=O)=O.[Na+].[Na+]", "Comparison Symbol": ">", "Number": 128}

====

# Study System: Beta-lactamase (Enterobacter cloacae, UniProt P05364)
# Sequence (P05364 whole entry): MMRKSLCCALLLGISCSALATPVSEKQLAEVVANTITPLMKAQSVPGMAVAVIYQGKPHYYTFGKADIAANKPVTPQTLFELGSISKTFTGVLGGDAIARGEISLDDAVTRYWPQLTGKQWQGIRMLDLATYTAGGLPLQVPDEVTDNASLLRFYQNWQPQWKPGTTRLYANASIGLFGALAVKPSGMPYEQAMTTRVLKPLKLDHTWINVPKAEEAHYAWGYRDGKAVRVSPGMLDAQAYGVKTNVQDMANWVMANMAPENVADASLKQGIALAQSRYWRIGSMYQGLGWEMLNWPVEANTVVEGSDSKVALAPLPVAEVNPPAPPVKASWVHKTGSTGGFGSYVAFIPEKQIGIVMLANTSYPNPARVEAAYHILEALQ
pIC50: −log10 of the molar value.
The reader will find reported pIC50 values listed item by item below.
Quantity Kind: pIC50

{"Structure As Smiles": "COC(=O)/C=C1/C(=O)N2C(C(=O)O)=C(COC(C)=O)CS[C@H]12", "Comparison Symbol": "<", "Number": 4.70}
{"Structure As Smiles": "CC(C)(C)OC(=O)/C=C1/C(=O)N2[C@@H]1SC(C)(C)[C@@H]2C(=O)O", "Comparison Symbol": "=", "Number": 5.05}
{"Structure As Smiles": "CC(C)(C)OC(=O)/C=C1/C(=O)N2[C@@H](C(=O)[O-])C(C)(C)S(=O)(=O)[C@H]12.[Na+]", "Comparison Symbol": "=", "Number": 5.39}
{"Structure As Smiles": "CC1(C)S[C@@H]2/C(=C\\C(=O)O)C(=O)N2[C@H]1C(=O)O", "Comparison Symbol": "=", "Number": 4.86}
{"Structure As Smiles": "CC(=O)/C=C1/C(=O)N2[C@@H]1SC(C)(C)[C@@H]2C(=O)O", "Comparison Symbol": "=", "Number": 6.44}

====

# Study System: Beta-lactamase TEM (Escherichia coli)
# Sequence (P62593 whole entry): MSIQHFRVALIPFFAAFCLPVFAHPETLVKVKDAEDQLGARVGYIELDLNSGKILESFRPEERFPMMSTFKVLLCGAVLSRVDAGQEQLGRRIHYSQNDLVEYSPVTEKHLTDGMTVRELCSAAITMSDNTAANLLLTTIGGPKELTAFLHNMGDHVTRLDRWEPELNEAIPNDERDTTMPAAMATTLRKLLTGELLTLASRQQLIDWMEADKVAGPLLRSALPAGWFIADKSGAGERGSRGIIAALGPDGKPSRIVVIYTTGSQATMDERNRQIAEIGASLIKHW
# Assay Comment: Inhibitory activity against beta-Lactamase enzyme derived from Escherichia coli WC3310 TEM-2
# Met = IC50 below 300 nM (exclusive); Not met = IC50 at/above 300 nM

{"Structure As Smiles": "COC(=O)/C=C1/C(=O)N2C(C(=O)O)=C(COC(C)=O)CS[C@H]12", "Study System": "Beta-lactamase TEM (Escherichia coli)", "Qualitative Label": "Not met"}
{"Structure As Smiles": "CC(C)(C)OC(=O)/C=C1/C(=O)N2[C@@H]1SC(C)(C)[C@@H]2C(=O)O", "Study System": "Beta-lactamase TEM (Escherichia coli)", "Qualitative Label": "Not met"}
{"Structure As Smiles": "C=C1C(=O)N2C(C(=O)O)=C(COC(C)=O)CS(=O)(=O)[C@H]12", "Study System": "Beta-lactamase TEM (Escherichia coli)", "Qualitative Label": "Not met"}
{"Structure As Smiles": "CC1(C)S[C@@H]2/C(=C\\C(=O)O)C(=O)N2[C@H]1C(=O)O", "Study System": "Beta-lactamase TEM (Escherichia coli)", "Qualitative Label": "Not met"}
{"Structure As Smiles": "CC(C)(C)OC(=O)/C=C1/C(=O)N2[C@@H](C(=O)[O-])C(C)(C)S(=O)(=O)[C@H]12.[Na+]", "Study System": "Beta-lactamase TEM (Escherichia coli)", "Qualitative Label": "Met"}
{"Structure As Smiles": "CC1(C)[C@H](C(=O)[O-])N2C(=O)/C(=C/C(=O)[O-])[C@H]2S1(=O)=O.[Na+].[Na+]", "Study System": "Beta-lactamase TEM (Escherichia coli)", "Qualitative Label": "Met"}
{"Structure As Smiles": "COC(=O)/C=C1/C(=O)N2C(C(=O)[O-])=C(COC(C)=O)CS(=O)(=O)[C@H]12.[Na+]", "Study System": "Beta-lactamase TEM (Escherichia coli)", "Qualitative Label": "Met"}
{"Structure As Smiles": "CC(=O)/C=C1/C(=O)N2[C@@H]1SC(C)(C)[C@@H]2C(=O)O", "Study System": "Beta-lactamase TEM (Escherichia coli)", "Qualitative Label": "Met"}
{"Structure As Smiles": "COC(=O)/C=C1/C(=O)N2[C@@H]1SC(C)(C)[C@@H]2C(=O)O", "Study System": "Beta-lactamase TEM (Escherichia coli)", "Qualitative Label": "Not met"}
{"Structure As Smiles": "C=C=C1C(=O)N2C(C(=O)O)=C(COC(C)=O)CS(=O)(=O)[C@H]12", "Study System": "Beta-lactamase TEM (Escherichia coli)", "Qualitative Label": "Not met"}
{"Structure As Smiles": "CC(=O)OCC1=C(C(=O)O)N2C(=O)/C(=C/C(=O)O)[C@H]2SC1", "Study System": "Beta-lactamase TEM (Escherichia coli)", "Qualitative Label": "Not met"}
{"Structure As Smiles": "CC(=O)OCC1=C(C(=O)[O-])N2C(=O)/C(=C/C(=O)[O-])[C@H]2S(=O)(=O)C1.[Na+].[Na+]", "Study System": "Beta-lactamase TEM (Escherichia coli)", "Qualitative Label": "Not met"}

Cited source: ChEMBL document CHEMBL1128766
